Every entry's value here was drawn from patent US7402688B2.

- Experimental System: vitamin D receptor (VDR) (Bos taurus, UniProt Q28037)
- Construct: vitamin D receptor (VDR) derived from calf thymus was evaluated; purchased Yamasa Shoyu Co., Ltd. (Choshi, Chiba, Japan) Lot; No. 111931; host or cells: calf thymus (tissue preparation)
- Sequence (Q28037 whole entry): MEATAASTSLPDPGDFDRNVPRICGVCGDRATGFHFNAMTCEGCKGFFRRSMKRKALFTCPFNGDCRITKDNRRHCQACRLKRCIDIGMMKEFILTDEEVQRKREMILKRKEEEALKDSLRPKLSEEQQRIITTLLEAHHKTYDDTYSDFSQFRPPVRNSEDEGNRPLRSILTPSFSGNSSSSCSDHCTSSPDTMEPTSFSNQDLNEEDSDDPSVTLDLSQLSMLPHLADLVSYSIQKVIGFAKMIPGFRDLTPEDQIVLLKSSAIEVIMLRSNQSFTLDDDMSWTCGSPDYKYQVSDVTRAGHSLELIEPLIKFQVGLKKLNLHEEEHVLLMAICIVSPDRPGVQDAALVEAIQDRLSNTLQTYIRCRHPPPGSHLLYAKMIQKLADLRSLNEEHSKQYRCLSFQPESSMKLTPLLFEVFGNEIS
- Assay Info: Binding assay for calf thymus vitamin D receptor (VDR)
- Experimental Conditions: relative to 1α,25-dihydroxyvitamin D3 = 1; ratio of concentrations for 50% inhibition of [3H]-1α,25-dihydroxyvitamin D3 binding to calf thymus VDR
Assignment: determine reported VDR affinity (relative binding affinity X=y/x) for the given compounds.

The cases that follow already have their VDR affinity (relative binding affinity X=y/x) on record.
{"Compound": "C[C@H](CCCC(C)(C)O)C1CCC2/C(=C/C=C3C[C@@H](O)C4(CO4)[C@H](O)C3)CCCC21C (stereo partly drawn) [YI-1b]", "Result": "1/290"}
{"Compound": "C[C@@H](CCCC(C)(C)O)C1CCC2/C(=C/C=C3C[C@@H](O)C(C)(O)[C@H](O)C3)CCCC21C (stereo partly drawn) [Compound 20-Epi-YI-3a]", "Result": 1}

Tell me its VDR affinity (relative binding affinity X=y/x) given C[C@@H](CCCC(C)(C)O)C1CCC2/C(=C/C=C3C[C@@H](O)C(OCCO)[C@H](O)C3)CCCC21C (single isomer, unassigned) [Compound 20-Epi-YI-6b] as the entry. 5
